Tested System: T1, extracellular domain (ECD) of human αKlotho, amino acids E34-S981 with C-terminal 6-His tag (R&D Systems … (human, UniProt Q9UEF7 34-981))
T1 construct: range 34-981; also called αKlotho (aa34-981); target antigen
T1 sequence: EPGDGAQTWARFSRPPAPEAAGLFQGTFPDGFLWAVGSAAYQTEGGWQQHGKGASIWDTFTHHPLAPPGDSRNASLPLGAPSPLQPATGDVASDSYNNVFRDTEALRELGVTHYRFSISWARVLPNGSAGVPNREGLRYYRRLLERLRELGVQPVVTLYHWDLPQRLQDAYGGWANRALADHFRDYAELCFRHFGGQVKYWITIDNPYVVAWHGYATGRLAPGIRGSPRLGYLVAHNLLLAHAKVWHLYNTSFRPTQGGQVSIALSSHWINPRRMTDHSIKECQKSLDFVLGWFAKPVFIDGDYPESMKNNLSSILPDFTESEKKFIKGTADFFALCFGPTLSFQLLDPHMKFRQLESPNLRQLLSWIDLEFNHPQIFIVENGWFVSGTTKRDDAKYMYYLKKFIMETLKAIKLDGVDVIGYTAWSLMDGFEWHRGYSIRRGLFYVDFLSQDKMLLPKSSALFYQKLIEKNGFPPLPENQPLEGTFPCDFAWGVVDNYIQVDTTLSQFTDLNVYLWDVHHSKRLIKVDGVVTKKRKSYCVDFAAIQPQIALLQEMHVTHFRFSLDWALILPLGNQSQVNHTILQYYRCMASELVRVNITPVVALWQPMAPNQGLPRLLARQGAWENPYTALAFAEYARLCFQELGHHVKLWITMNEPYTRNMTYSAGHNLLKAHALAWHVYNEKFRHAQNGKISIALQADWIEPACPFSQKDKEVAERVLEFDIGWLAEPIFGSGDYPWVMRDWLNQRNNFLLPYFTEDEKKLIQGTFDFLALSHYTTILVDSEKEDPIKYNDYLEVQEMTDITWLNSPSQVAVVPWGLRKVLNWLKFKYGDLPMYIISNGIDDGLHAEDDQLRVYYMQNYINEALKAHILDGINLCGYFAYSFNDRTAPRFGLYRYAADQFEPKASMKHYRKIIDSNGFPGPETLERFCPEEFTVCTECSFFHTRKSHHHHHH
Method Notes: SPR, Fab captured by anti-H+L IgG, αKlotho injected at 50 to 6.25 ug/ml, Langmuir fit [continued]
pKd: −log10 of the molar value.
Rule: pKd under 9 gives class 0, otherwise class 1.

Could you tell me if the measured pKd of anti-αKlotho Fab clone 4813 (Fab, V domains shown, Fab (also as Fab-phage); FLAG tag on light chain; also called sb182) VH: EVQLVESGGGLVQPGGSLRLSCAASGFNLYSSSIHWVRQAPGKGLEWVASISPYSGYTYYADSVKGRFTISADTSKNTAYLQMNSLRAEDTAVYYCARYYSGWYSPAWWYGIDYWGQGTLVTVSS VL: DIQMTQSPSSLSASVGDRVTITCRASQSVSSAVAWYQQKPGKAPKLLIYSASSLYSGVPSRFSGSRSGTDFTLTISSLQPEDFATYYCQQAAWGGAPITFGQGTKVEIKR reaches 9 or more?
class 0

Also check anti-αKlotho Fab clone 4817 (Fab, V domains shown, Fab (also as Fab-phage); FLAG tag on light chain; also called sb186) VH: EVQLVESGGGLVQPGGSLRLSCAASGFNFSSSSIHWVRQAPGKGLEWVASISSSYGYTYYADSVKGRFTISADTSKNTAYLQMNSLRAEDTAVYYCARGYPSSGAAWFWFSHPGSAMDYWGQGTLVTVSS VL: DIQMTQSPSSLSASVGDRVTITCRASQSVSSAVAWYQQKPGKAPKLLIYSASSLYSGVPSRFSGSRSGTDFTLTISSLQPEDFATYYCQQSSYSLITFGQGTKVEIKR
class 0

Could you do the same for anti-αKlotho Fab clone 4821 (Fab, V domains shown, Fab (also as Fab-phage); FLAG tag on light chain; also called sb190) VH: EVQLVESGGGLVQPGGSLRLSCAASGFNLYYSYMHWVRQAPGKGLEWVASISPYSGSTYYADSVKGRFTISADTSKNTAYLQMNSLRAEDTAVYYCARSGFSSWWWVVSYAFDYWGQGTLVTVSS VL: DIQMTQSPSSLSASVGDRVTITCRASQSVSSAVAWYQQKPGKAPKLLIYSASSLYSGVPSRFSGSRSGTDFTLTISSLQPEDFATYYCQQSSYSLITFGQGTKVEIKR , please?
class 0

More entries:
In plain terms: is recorded pKd at least 9 for anti-αKlotho Fab clone 4826 (Fab, V domains shown, Fab (also as Fab-phage); FLAG tag on light chain; also called sb195) VH: EVQLVESGGGLVQPGGSLRLSCAASGFNISSYYMHWVRQAPGKGLEWVASISSSYGYTYYADSVKGRFTISADTSKNTAYLQMNSLRAEDTAVYYCARGYPASSYYYPSSALDYWGQGTLVTVSS VL: DIQMTQSPSSLSASVGDRVTITCRASQSVSSAVAWYQQKPGKAPKLLIYSASSLYSGVPSRFSGSRSGTDFTLTISSLQPEDFATYYCQQAGFFSYPITFGQGTKVEIKR ?
class 0

anti-αKlotho Fab clone 4832 (Fab, V domains shown, Fab (also as Fab-phage); FLAG tag on light chain; also called sb201) VH: EVQLVESGGGLVQPGGSLRLSCAASGFNFSSSSIHWVRQAPGKGLEWVAYISSSYGYTSYADSVKGRFTISADTSKNTAYLQMNSLRAEDTAVYYCARASGWFSHFYPAAVSGMDYWGQGTLVTVSS VL: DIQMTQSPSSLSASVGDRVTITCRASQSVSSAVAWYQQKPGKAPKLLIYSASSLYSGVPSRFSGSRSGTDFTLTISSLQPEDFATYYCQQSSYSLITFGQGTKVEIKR , same question.
class 1

What do you have for anti-αKlotho Fab clone 4816 (Fab, V domains shown, Fab (also as Fab-phage); FLAG tag on light chain; also called sb185) VH: EVQLVESGGGLVQPGGSLRLSCAASGFNFSSSSIHWVRQAPGKGLEWVASISSSYGYTYYADSVKGRFTISADTSKNTAYLQMNSLRAEDTAVYYCARGWYAAYSVYWFGGHASYGLDYWGQGTLVTVSS VL: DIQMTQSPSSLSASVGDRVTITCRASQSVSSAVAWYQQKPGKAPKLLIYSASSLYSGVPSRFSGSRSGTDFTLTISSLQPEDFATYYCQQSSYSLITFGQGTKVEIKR ?
class 0
